target: Abeta monomers (Homo sapiens, UniProt P05067); construct: incubate with FITC Abeta monomers, oligomers, fibrils and FITC for 1 hour at room temperature; assay: Peptide microarray, binding of FITC Abeta monomers to immobilized peptides; settings: quotient binding signal to monomers / binding signal to oligomers
Sequence (P05067 672-713 limits assumed): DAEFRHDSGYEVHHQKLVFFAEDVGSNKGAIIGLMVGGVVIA
Where a SMILES comes first, the peptide text is derived from it. [ ]: non-standard residue; d: D form. dPhe(4-F) = N[C@H](Cc1ccc(F)cc1)C(=O)O

- Compound: "CC[C@@H](C)[C@@H](NC(=O)[C@@H](CCCNC(=N)N)NC(=O)[C@@H](CCCCN)NC(=O)[C@H](N)CCCNC(=N)N)C(=O)N[C@H](CCCNC(=N)N)C(=O)N[C@H](CC(C)C)C(=O)N[C@@H](C(=O)N[C@@H](C(=O)N[C@H](CCCCN)C(=O)N[C@H](CCCCN)C(=O)N[C@H](CCCCN)C(=O)N[C@H](CCCNC(=N)N)C(N)=O)[C@H](C)O)C(C)C [ANK6, rkrirlvtkkkr] (H-[dR][dK][dR][dI][dR][dL][dV][dT][dK][dK][dK][dR]-NH2)"
  Binding specificity monomer to oligomer: 4.1
- Compound: "CC[C@@H](C)[C@@H](NC(=O)[C@@H](Cc1c[nH]cn1)NC(=O)[C@H](NC(=O)[C@@H](Cc1ccc(F)cc1)NC(=O)[C@@H](CC(C)C)NC(=O)[C@@H](CCCNC(=N)N)NC(=O)[C@H](NC(=O)[C@@H](CCCNC(=N)N)NC(=O)[C@@H](CCCCN)NC(=O)[C@H](N)CCCNC(=N)N)C(C)C)[C@H](C)O)C(=O)N[C@H](CCCCN)C(=O)N[C@H](CCCNC(=N)N)C(N)=O [ANK7, rkrvrl02thikr] (H-[dR][dK][dR][dV][dR][dL][dPhe(4-F)][dT][dH][dI][dK][dR]-NH2)"
  Binding specificity monomer to oligomer: 6.4
- Compound: "CC(C)C[C@@H](NC(=O)[C@@H](CCCNC(=N)N)NC(=O)[C@H](NC(=O)[C@@H](CCCNC(=N)N)NC(=O)[C@@H](CCCCN)NC(=O)[C@H](N)CCCNC(=N)N)C(C)C)C(=O)N[C@@H](C(=O)N[C@H](Cc1ccc(O)cc1)C(=O)N[C@H](Cc1c[nH]cn1)C(=O)N[C@H](CCCCN)C(=O)N[C@H](CCCCN)C(=O)N[C@H](CCCNC(=N)N)C(N)=O)C(C)C [ANK5, rkrvrlvyhkkr] (H-[dR][dK][dR][dV][dR][dL][dV][dY][dH][dK][dK][dR]-NH2)"
  Binding specificity monomer to oligomer: 5.9

This collection of values is drawn from patent US10174097B2.
